Cited source: paper PMC7668563

Reported other secondary structure content of apo-hTf values follow for various compounds
target-desc: apo-human transferrin (apo-hTf) (Homo sapiens, UniProt P02787)
Sequence (P02787 20-698): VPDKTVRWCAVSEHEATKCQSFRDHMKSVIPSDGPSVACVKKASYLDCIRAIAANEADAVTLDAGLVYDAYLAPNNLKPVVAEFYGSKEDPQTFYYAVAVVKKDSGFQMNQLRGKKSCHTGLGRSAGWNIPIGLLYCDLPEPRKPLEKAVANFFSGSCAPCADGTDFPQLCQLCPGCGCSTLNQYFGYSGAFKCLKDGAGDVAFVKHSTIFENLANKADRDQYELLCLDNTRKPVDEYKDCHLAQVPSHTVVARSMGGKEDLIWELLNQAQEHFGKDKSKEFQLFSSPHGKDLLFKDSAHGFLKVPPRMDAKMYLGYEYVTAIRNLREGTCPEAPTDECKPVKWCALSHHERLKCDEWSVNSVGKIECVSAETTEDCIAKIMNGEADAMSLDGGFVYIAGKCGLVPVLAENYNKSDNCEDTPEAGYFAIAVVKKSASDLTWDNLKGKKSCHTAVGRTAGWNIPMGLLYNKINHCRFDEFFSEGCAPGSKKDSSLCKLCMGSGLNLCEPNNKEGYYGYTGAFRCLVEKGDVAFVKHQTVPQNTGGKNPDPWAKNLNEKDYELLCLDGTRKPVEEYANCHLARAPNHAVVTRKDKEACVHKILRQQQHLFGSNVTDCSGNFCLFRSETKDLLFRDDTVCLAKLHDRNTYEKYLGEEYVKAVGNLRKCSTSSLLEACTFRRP
procedure-summary: Far-UV circular dichroism titration of apo-hTf, secondary structure content
assay-context: compound concentration 2.4 (M)
The figure you give is taken to be in %; do not add the unit.

[Cl-].[Cl-].[Hf+4].c1cc[cH-]c1.c1cc[cH-]c1 [Cp2HfCl2]
19.2
N.N.[Cl][Pt][Cl] [(NH3)2Pt(II)Cl2, cis-diamminedichloroplatinum (II), reference compound]
19.3

**Q:** Record lookup: for apo-human transferrin (apo-hTf) (Homo sapiens, UniProt P02787), what other secondary structure content of apo-hTf belongs to [Cl][Zr+2][Cl].c1cc[cH-]c1.c1cc[cH-]c1 [Cp2ZrCl2] ?
**A:** 18.9

###

target-desc: apo-human transferrin (apo-hTf) (Homo sapiens, UniProt P02787)
procedure-summary: Thermodynamic parameters of apo-hTf complex formation
Type: binding
assay-context: 303 K
// reported ∆G° for each item listed
Output spec: scalar in kcal/mol, unitless text.

Some compounds with recorded ∆G°:
[Cl-].[Cl-].[Ti+4].c1cc[cH-]c1.c1cc[cH-]c1 [Cp2TiCl2, titanocene dichloride]
-4.465
C1CCCC1.C1CCCC1.[Cl][Nb][Cl]
-6.164

**Q:** Can you share its ∆G°? I mean this compound: "[Cl][Zr+2][Cl].c1cc[cH-]c1.c1cc[cH-]c1"
**A:** -4.584

**Q:** Moving on to the next compound: "[Cl-].[Cl-].[Mo+4].c1cc[cH-]c1.c1cc[cH-]c1"
**A:** -4.46

###

# biomolecular quenching rate constant kq listing for each entry below
target-desc: apo-human transferrin (apo-hTf) (Homo sapiens)
procedure-summary: Fluorescence quenching of apo-hTf
Type: binding
assay-context: 303 K, kq=Ksv/τ0
Field: value (include unit after the number)

Here are 2 compounds together with their reported answers.
[Cl][Zr+2][Cl].c1cc[cH-]c1.c1cc[cH-]c1
1.97e+11 M⁻¹ s⁻¹
N.N.[Cl][Pt][Cl] [(NH3)2Pt(II)Cl2, cis-diamminedichloroplatinum (II), reference compound]
1.1e+11 M⁻¹ s⁻¹

Would you kindly look at the next entry?
**Q:** Given the entry "[Cl-].[Cl-].[Mo+4].c1cc[cH-]c1.c1cc[cH-]c1" , report its measured biomolecular quenching rate constant kq.
**A:** 1.59e+11 M⁻¹ s⁻¹

###

Known other secondary structure content of apo-hTf of a selection of molecules
target-desc: apo-human transferrin (apo-hTf) (Homo sapiens, UniProt P02787)
procedure-summary: Far-UV circular dichroism titration of apo-hTf, secondary structure content
assay-context: compound concentration 2 (M)
Respond numerically; units are % and should not be typed.

In the examples that follow, each entry is paired with its recorded other secondary structure content of apo-hTf.
[Cl-].[Cl-].[V+4].c1cc[cH-]c1.c1cc[cH-]c1
20.8
C1CCCC1.C1CCCC1.[Cl][Nb][Cl]
20.2
[Cl-].[Cl-].[Mo+4].c1cc[cH-]c1.c1cc[cH-]c1
20.1

**Q:** Which measured other secondary structure content of apo-hTf belongs to "C1CCCC1.C1CCCC1.[Cl][W][Cl]" , tested on apo-human transferrin (apo-hTf) (Homo sapiens, UniProt P02787)?
**A:** 19.2

**Q:** Follow-up entry: "[Cl-].[Cl-].[Hf+4].c1cc[cH-]c1.c1cc[cH-]c1"
**A:** 19.1

**Q:** # iterate: "[Cl][Zr+2][Cl].c1cc[cH-]c1.c1cc[cH-]c1"
**A:** 18.9

**Q:** Another molecule to check: N.N.[Cl][Pt][Cl] [(NH3)2Pt(II)Cl2, cis-diamminedichloroplatinum (II), reference compound]
**A:** 19.3

**Q:** // query: [Cl-].[Cl-].[Ti+4].c1cc[cH-]c1.c1cc[cH-]c1 [Cp2TiCl2, titanocene dichloride]
**A:** 18.9

###

target-desc: apo-human transferrin (apo-hTf) (Homo sapiens, UniProt P02787)
procedure-summary: Fluorescence quenching of apo-hTf
Assay type: binding
assay-context: 296 K, pH 7.4
number of binding sites n for assorted molecules
Number, no unit, nothing else.

Example results:
[Cl-].[Cl-].[V+4].c1cc[cH-]c1.c1cc[cH-]c1 [Cp2VCl2]
1.23
[Cl-].[Cl-].[Hf+4].c1cc[cH-]c1.c1cc[cH-]c1 [Cp2HfCl2]
1.15
N.N.[Cl][Pt][Cl] [(NH3)2Pt(II)Cl2, cis-diamminedichloroplatinum (II), reference compound]
0.97
[Cl][Zr+2][Cl].c1cc[cH-]c1.c1cc[cH-]c1 [Cp2ZrCl2]
1.07
C1CCCC1.C1CCCC1.[Cl][Nb][Cl] [Cp2NbCl2]
1.26

**Q:** Quick one: number of binding sites n of [Cl-].[Cl-].[Mo+4].c1cc[cH-]c1.c1cc[cH-]c1 [Cp2MoCl2] ?
**A:** 1.26

**Q:** Okay, and [Cl-].[Cl-].[Ti+4].c1cc[cH-]c1.c1cc[cH-]c1 [Cp2TiCl2, titanocene dichloride] ?
**A:** 1.11

**Q:** Thanks! And C1CCCC1.C1CCCC1.[Cl][W][Cl] [Cp2WCl2] ?
**A:** 1.16

###

target-desc: UniProtKB P02787
procedure-summary: Far-UV circular dichroism titration of apo-hTf, secondary structure content
assay-context: compound concentration 0.4 (M)
metric-name: random coil content of apo-hTf (%)
Please respond with the number in % and leave the unit unwritten.

[Cl-].[Cl-].[Mo+4].c1cc[cH-]c1.c1cc[cH-]c1
33.9

**Q:** Look up random coil content of apo-hTf: "C1CCCC1.C1CCCC1.[Cl][W][Cl]"
**A:** 33.7

**Q:** Same question for "[Cl-].[Cl-].[V+4].c1cc[cH-]c1.c1cc[cH-]c1" please.
**A:** 33.7

**Q:** Do the same for "C1CCCC1.C1CCCC1.[Cl][Nb][Cl]" please
**A:** 33.8

**Q:** Can you check N.N.[Cl][Pt][Cl] [(NH3)2Pt(II)Cl2, cis-diamminedichloroplatinum (II), reference compound] next?
**A:** 33.9

###

target-desc: apo-human transferrin (apo-hTf) (Homo sapiens, UniProt P02787)
procedure-summary: Thermodynamic parameters of apo-hTf complex formation
Assay type: binding
assay-context: 303 K
metric-name: ∆G° (kcal/mol)
Respond numerically; units are kcal/mol and should not be typed.

[Cl-].[Cl-].[Hf+4].c1cc[cH-]c1.c1cc[cH-]c1
-4.45
N.N.[Cl][Pt][Cl] [(NH3)2Pt(II)Cl2, cis-diamminedichloroplatinum (II), reference compound]
-4.233
C1CCCC1.C1CCCC1.[Cl][W][Cl]
-4.498

# next molecule below
**Q:** Entry "[Cl-].[Cl-].[V+4].c1cc[cH-]c1.c1cc[cH-]c1" has what ∆G°?
**A:** -6.379

###

target-desc: apo-human transferrin (apo-hTf) (Homo sapiens, UniProt P02787)
procedure-summary: Far-UV circular dichroism titration of apo-hTf, secondary structure content
assay-context: compound concentration 0.4 (M)
metric-name: random coil content of apo-hTf (%)
Give the value, in units of %, as a plain number.

[Cl][Zr+2][Cl].c1cc[cH-]c1.c1cc[cH-]c1
33.8
[Cl-].[Cl-].[Ti+4].c1cc[cH-]c1.c1cc[cH-]c1 [Cp2TiCl2, titanocene dichloride]
33.8

# context switch: different compound, same random coil content of apo-hTf
**Q:** # lookup: random coil content of apo-hTf of "[Cl-].[Cl-].[Hf+4].c1cc[cH-]c1.c1cc[cH-]c1"
**A:** 33.7
